Each recorded value in this set is attributed to patent US20250026748A1.

target of assay: PolQ ATPase enzyme (1-894) (Homo sapiens (Human), UniProt O75417)
Sequence (O75417 1-894): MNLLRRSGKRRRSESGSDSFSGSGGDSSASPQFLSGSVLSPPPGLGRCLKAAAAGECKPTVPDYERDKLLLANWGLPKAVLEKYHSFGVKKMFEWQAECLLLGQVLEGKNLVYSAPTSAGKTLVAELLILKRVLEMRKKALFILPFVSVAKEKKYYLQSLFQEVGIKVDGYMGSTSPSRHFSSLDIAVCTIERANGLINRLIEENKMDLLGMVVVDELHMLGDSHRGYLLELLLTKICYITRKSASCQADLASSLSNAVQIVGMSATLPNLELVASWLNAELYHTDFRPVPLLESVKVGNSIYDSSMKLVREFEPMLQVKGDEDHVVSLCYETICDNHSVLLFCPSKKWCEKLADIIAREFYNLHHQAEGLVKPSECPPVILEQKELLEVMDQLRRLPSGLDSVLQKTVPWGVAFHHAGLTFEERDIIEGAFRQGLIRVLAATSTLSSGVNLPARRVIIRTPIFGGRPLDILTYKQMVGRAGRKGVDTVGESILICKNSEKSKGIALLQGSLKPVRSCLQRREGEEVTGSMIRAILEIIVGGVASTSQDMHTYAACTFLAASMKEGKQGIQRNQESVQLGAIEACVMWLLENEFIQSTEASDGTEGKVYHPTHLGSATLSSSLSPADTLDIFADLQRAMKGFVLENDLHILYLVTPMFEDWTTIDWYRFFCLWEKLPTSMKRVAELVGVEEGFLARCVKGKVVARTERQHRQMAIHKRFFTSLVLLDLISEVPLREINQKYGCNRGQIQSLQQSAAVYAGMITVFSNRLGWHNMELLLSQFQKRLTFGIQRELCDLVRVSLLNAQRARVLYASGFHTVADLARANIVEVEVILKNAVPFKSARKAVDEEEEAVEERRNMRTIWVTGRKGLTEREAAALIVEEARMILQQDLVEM
measurement description: Polθ ATPase enzymatic assay (0.5 nM enzyme concentration), ADP-Glo
Assay type: biochemical
measurement conditions: average IC50; 0.5 nM PolQ ATPase enzyme (1-894)
Experimental: PolQ ATPase enzyme (1-894) at 0.5 nM is incubated with a 10-point concentration response of inhibitors for 15 min at rt in the following buffer: 50 mM Tris Cl pH 7.5, 10% glycerol, 5 mM DTT, 10 mM MgCl2, 0.1 mg/ml BSA. […] Enzymatic reaction proceeds at rt for 180 min ATP consumption is measured using the ADP-Glo assay from Promega. Luminescence is read on the Envision and IC50 are determined using the variable slope 4-parameters equation. […]
Listing of entries alongside the reported IC50.

>  <molecule>
COc1cnc(C(F)F)cc1-c1cc(C#CCN(C)C)ccc1C(=O)Nc1nnc(C#CC2CC2)s1 [Compound 236]

>  <bound type>
=

>  <IC50 (nM)>
0.56

$$$$
>  <molecule>
COc1cnc(C(F)F)cc1-c1cc(Oc2nccs2)ccc1C(=O)Nc1nnc(C#CC2CC2)s1 [Compound 301]

>  <bound type>
<

>  <IC50 (nM)>
0.25

$$$$
>  <molecule>
Cc1nnc(-n2cc(-c3cc(C(F)(F)F)ccc3Cl)c(C(=O)Nc3ncc(C#CC4CC4)s3)cc2=O)o1 [Compound 464]

>  <bound type>
<

>  <IC50 (nM)>
0.25

$$$$
>  <molecule>
COc1cnc(C(F)F)cc1-c1cc(-c2nnc(NC(C)=O)o2)ccc1C(=O)Nc1nnc(C#CC2CC2)s1 [Compound 418]

>  <bound type>
=

>  <IC50 (nM)>
1.6

$$$$
>  <molecule>
COc1cnc(C(F)F)cc1-c1cc(C#CC2(OC)CCOCC2)ccc1C(=O)Nc1nnc(C#CC2CC2)s1 [Compound 246]

>  <bound type>
=

>  <IC50 (nM)>
1.1

$$$$
>  <molecule>
COc1cnc(C(F)F)cc1-c1cc(N2CCOCC2)ccc1C(=O)Nc1nnc(C#CC2CC2)s1 [Compound 239]

>  <bound type>
=

>  <IC50 (nM)>
18

$$$$
>  <molecule>
COc1cnc(Cl)cc1-c1cnccc1C(=O)Nc1nnc(C#CC2CC23CC3)s1 (stereo not drawn) [Compound 100]

>  <bound type>
<

>  <IC50 (nM)>
0.25

$$$$
>  <molecule>
COc1cnc(C(F)F)cc1-c1cc(OC2CCN(C)C2=O)ncc1C(=O)Nc1nnc(C#CC2CC2)s1 (stereo not drawn) [Compound 182]

>  <bound type>
=

>  <IC50 (nM)>
1.2

$$$$
>  <molecule>
COc1ccc(C(F)(F)F)cc1-c1cn(C)c(=O)cc1C(=O)Nc1nnc(C#CC2CC23CC3)s1 (stereo not drawn) [Compound 60]

>  <bound type>
=

>  <IC50 (nM)>
1.1

$$$$
>  <molecule>
COc1cnc(C(F)F)cc1-c1cnccc1C(=O)Nc1nnc(C#CC2CC2)s1 [Compound 31]

>  <bound type>
=

>  <IC50 (nM)>
0.63

$$$$
>  <molecule>
COc1cnc(C(F)F)cc1-c1cc(-n2ccnc(C)c2=O)ncc1C(=O)Nc1nnc(C#CC2CC2)s1 [Compound 458]

>  <bound type>
=

>  <IC50 (nM)>
0.1

$$$$
>  <molecule>
[2H]C([2H])([2H])N(C(C)=O)c1ccc(C(=O)Nc2nnc(C#CC3CC3)s2)c(-c2cc(C(F)F)ncc2OC)c1 [Compound 232]

>  <bound type>
<

>  <IC50 (nM)>
0.25

$$$$
>  <molecule>
COc1cnc(C(F)(F)F)cc1-c1cnccc1C(=O)Nc1nnc(C2CC2c2ccc(C#N)cc2)s1 (stereo not drawn) [Compound 90]

>  <bound type>
=

>  <IC50 (nM)>
0.8

$$$$
>  <molecule>
COc1cnc(Cl)cc1-c1cnccc1C(=O)Nc1nnc(C2C[C@H]2c2ccc(C#N)cc2O)s1 (stereo partly drawn) [Compound 273]

>  <bound type>
=

>  <IC50 (nM)>
1.8

$$$$
>  <molecule>
COc1cnc(C(F)F)cc1-c1cc(N2CC3(CCC2=O)CC3)ncc1C(=O)Nc1nnc(C#CC2CC2)s1 [Compound 426]

>  <bound type>
=

>  <IC50 (nM)>
0.39

$$$$

----------
target of assay: PolQ ATPase enzyme (1-894) (Homo sapiens (Human))
measurement description: Polθ ATPase enzymatic assay (0.5 nM enzyme concentration), ADP-Glo
Assay type: biochemical
measurement conditions: average IC50; 0.5 nM PolQ ATPase enzyme (1-894)
Listing of entries alongside the reported IC50.

>  <input smiles>
COc1cc(N2CCOCC2)c(C(F)(F)F)cc1-c1cnccc1C(=O)Nc1nnc(C#CC2CC2)s1

>  <measure unit>
nM

>  <bound type>
<

>  <IC50>
0.25

$$$$
>  <input smiles>
COc1cnc(C(F)F)cc1-c1cc(CC#N)ccc1C(=O)Nc1ncc(C#CC2CC2)s1

>  <measure unit>
nM

>  <bound type>
=

>  <IC50>
2.5

$$$$
>  <input smiles>
COc1cnc(C(F)F)cc1-c1cc(N2CC3(C2)CC(C)(O)C3)ncc1C(=O)Nc1nnc(C#CC2CC2)s1

>  <measure unit>
nM

>  <bound type>
=

>  <IC50>
2.1

$$$$
>  <input smiles>
C#Cc1cc(-c2cc(C(F)F)ncc2OC)c(C(=O)Nc2nnc(C#CC3CC3)s2)cn1

>  <measure unit>
nM

>  <bound type>
=

>  <IC50>
0.38

$$$$
>  <input smiles>
COc1cnc(C(F)F)cc1-c1cc(N2CCCCC2=O)ccc1C(=O)Nc1ncc(C#CC2CC2)s1

>  <measure unit>
nM

>  <bound type>
=

>  <IC50>
0.67

$$$$
>  <input smiles>
COc1cnc(C(F)F)cc1-c1cc(-c2cnn(C(F)F)c2)ncc1C(=O)Nc1nnc(C#CC2CC2)s1

>  <measure unit>
nM

>  <bound type>
<

>  <IC50>
0.25

$$$$
>  <input smiles>
COc1cnc(C(F)F)cc1-c1cc(N2CCCCC2=O)ccc1C(=O)Nc1nnc(C#CC2CC2)s1

>  <measure unit>
nM

>  <bound type>
<

>  <IC50>
0.25

$$$$

----------
measurement description: Liver microsomal stability assay
Format: in vitro ADME
measurement conditions: pH 7.4; human liver microsomes 0.5 mg/mL, 1 μM compound, NADPH 1 mM, 37 °C

>  <compound>
COc1ccccc1-c1cnccc1C(=O)Nc1nnc(OCc2ccc(C#N)cc2)s1

>  <microsomal CLint at 1 μM>
234 µL/min/mg

$$$$
>  <compound>
COc1ccc(F)cc1-c1cnccc1C(=O)Nc1nnc(OCc2ccc(C#N)cc2)s1

>  <microsomal CLint at 1 μM>
174 µL/min/mg

$$$$
>  <compound>
COc1ccccc1-c1cnccc1C(=O)Nc1nnc(OCc2ccc(Cl)cc2)s1

>  <microsomal CLint at 1 μM>
262 µL/min/mg

$$$$
>  <compound>
COc1ccccc1-c1cnccc1C(=O)Nc1nnc(C#Cc2ccc(Cl)cc2)s1 [Compound 474]

>  <microsomal CLint at 1 μM>
22.5 µL/min/mg

$$$$
>  <compound>
C=C(C1=CN=CCC1C(=O)Nc1nnc(CCC2CC2)s1)/C(=C\N=C\Cl)OC (centres unmarked)

>  <microsomal CLint at 1 μM>
< 7.7 µL/min/mg

$$$$

----------
target of assay: PolQ ATPase enzyme (1-894) (Homo sapiens (Human), UniProt O75417)
measurement description: Polθ ATPase enzymatic assay (0.5 nM enzyme concentration), ADP-Glo
Type: biochemical
measurement conditions: average IC50; 0.5 nM PolQ ATPase enzyme (1-894)
Listing of entries alongside the reported IC50.

>  <compound>
COc1cnc(C)cc1-c1cnccc1C(=O)Nc1nnc(C#Cc2cc(C)[nH]n2)s1 [Compound 85]

>  <IC50>
1.1 nM

$$$$
>  <compound>
COc1cnc(Cl)cc1-c1cnccc1C(=O)Nc1nnc(C2C[C@H]2c2ccc(C#N)nc2)s1 (stereo partly shown) [Compound 318]

>  <IC50>
4.8 nM

$$$$
>  <compound>
COc1cnc(C(F)F)cc1-c1cc(-c2ccn(C)n2)cnc1C(=O)Nc1ncc(C#CC2CC2)s1 [Compound 139]

>  <IC50>
61 nM

$$$$
>  <compound>
COc1cnc(C(F)F)cc1-c1cc(N2CCC(C)(O)CC2)ncc1C(=O)Nc1nnc(C#CC2CC2)s1 [Compound 121]

>  <IC50>
2 nM

$$$$
>  <compound>
COc1cnc(Cl)cc1-c1cc(C#CC2(O)CCS(=O)(=O)CC2)ccc1C(=O)Nc1nnc(C#CC2CC2)s1 [Compound 288]

>  <IC50>
< 0.25 nM

$$$$
>  <compound>
COc1ccc(C(F)(F)F)cc1-c1cc(C#CC(C)O)ncc1C(=O)Nc1nnc(C#CC2CC2)s1 (stereo not shown) [Compound 248]

>  <IC50>
< 0.25 nM

$$$$
>  <compound>
COc1cnc(Cl)cc1-c1cn2ncnc2cc1C(=O)Nc1nnc(C#CC2CC2)s1 [Compound 96]

>  <IC50>
2.6 nM

$$$$
